Measured values drawn from ChEMBL document CHEMBL1122499 for this set.

tested on: Human alphaherpesvirus 1; assay: Antiviral activity against herpes simplex virus type 1 (HSV-1) determined in baby hamster kidney cells; assay type: functional; conditions: Human alphaherpesvirus 1; read-out: MIC
property-label: MIC

Below: 5 molecules and their reported MIC.
# smiles-string, system, reported-result
records = [
    ("C/C=C(/C)c1cn([C@H]2C[C@H](O)[C@@H](CO)O2)c(=O)[nH]c1=O", "Human alphaherpesvirus 1", "> 100 µg/mL"),
    ("CC(C)(C)/C=C/c1cn([C@H]2C[C@H](O)[C@@H](CO)O2)c(=O)[nH]c1=O", "Human alphaherpesvirus 1", "> 10 µg/mL"),
    ("COC(=O)/C=C/C=C/c1cn([C@H]2C[C@H](O)[C@@H](CO)O2)c(=O)[nH]c1=O", "Human alphaherpesvirus 1", "> 100 µg/mL"),
    ("COC(=O)/C(C)=C/c1cn([C@H]2C[C@H](O)[C@@H](CO)O2)c(=O)[nH]c1=O", "Human alphaherpesvirus 1", "> 100 µg/mL"),
    ("CCCC/C=C/c1cn([C@H]2C[C@H](O)[C@@H](CO)O2)c(=O)[nH]c1=O", "Human alphaherpesvirus 1", "> 100 µg/mL"),
]

Ask: What measured MIC is associated with CCC/C=C/c1cn([C@H]2C[C@H](O)[C@@H](CO)O2)c(=O)[nH]c1=O on Human alphaherpesvirus 1?
Result: > 100 µg/mL

Ask: Now the same for CC(C)=Cc1cn([C@H]2C[C@H](O)[C@@H](CO)O2)c(=O)[nH]c1=O
Result: > 50 µg/mL

Ask: Now the same for C/C=C\c1cn([C@H]2C[C@H](O)[C@@H](CO)O2)c(=O)nc1N
Result: > 100 µg/mL
